targetSystem: Schistosoma mansoni thioredoxin glutathione reductase (TGR)
protocolDescription: qHTS Assay for the Inhibitors of Schistosoma Mansoni Peroxiredoxins; further: nearly all actives have a fitted effect of over 60% in size
setupConditions: purified TGR, DTNB reduction, TNB absorbance 405 nm; series mostly up to 114 µM
Description: Schistosomiasis is a major neglected tropical disease that currently affects over 200 million. It is caused by different species of flatworms, such as Schistosoma mansoni. […] In addition, the fluorescence assay was also subject to fluorescence interference from compound library members. […] The assay followed the reduction of 5, 5'-dithiobis (2-nitrobenzoic acid) (DTNB) (Ellman's reagent) by NADPH and measured the increase in absorbance at 412 nm of the reaction product, TNB. […]
Out of some 360,000 compounds screened, about 11,000 (3.1%) were called active. Roughly 4% stayed inconclusive and do not appear here. The call rests on the fitted dose curve; in most records, active means well fitted inhibition curve with a large enough effect; inconclusive means small, poorly fitted or top-dose-only effect; inactive means no such curve, though single readings can be large or run the other way. The sample as a whole holds a higher share of actives than the screen did.
Hi! Could you answer with just one of these? active, inactive

Answered cases to consult:
                                   compound  discretelabel
0  O=C(Cn1ncc2c3ccccc3n(Cc3ccccc3)c2c1=O)NC1CCCCCC1       inactive
1  Cc1ccc(-c2c3c(=O)n(C)c(=O)n(C)c3cn2-n2cnnc2)cc1         active
2  COc1ccc(NC(=O)CCCc2nnc3n(CCC(C)C)c(=O)c4sccc4n23)c(OC)c1       inactive
3  Cc1cc(C)cc(NS(=O)(=O)c2ccc(-c3cc(C)no3)s2)c1       inactive
4       COc1ccc(NC(=O)CSc2nc(SC)ns2)c(OC)c1       inactive

Ask: Assay result, entry O=C(CSc1ccc(-c2ccco2)nn1)NCc1ccc2c(c1)OCO2 — outcome?
Reply: active

Ask: Hello, I am checking results. What call was entered for Cc1cccc(-n2ccnc2SCC(=O)Nc2cccc3ccccc23)c1C ?
Reply: inactive

====

targetSystem: Schistosoma mansoni thioredoxin glutathione reductase (TGR) (UniProt Q962Y6)
protocolDescription: qHTS Assay for the Inhibitors of Schistosoma Mansoni Peroxiredoxins; further: nearly all actives have a fitted effect of over 60% in size
setupConditions: purified TGR, DTNB reduction, TNB absorbance 405 nm; series mostly up to 114 µM
Out of some 360,000 compounds screened, about 11,000 (3.1%) were called active. About 4% were inconclusive and are not listed. Calls follow the shape of the dose curve; as a rule, active = well fitted inhibition curve with a large enough effect; inconclusive = small, poorly fitted or top-dose-only effect; inactive = no such curve, though single readings can be large or run the other way. The sample holds actives, similar compounds and a random draw of the others, so the mix is not that of the screen.
Select the correct class. Options are active, inactive and nothing else.

Record excerpt, results attached:
>>> print(df.to_string())
                                   compound  discretelabel
0  COc1ccc(-c2nc3ccccc3c(=O)n2CCc2ccc(O)cc2)cc1       inactive
1  CCCS(=O)(=O)N1CCC(n2c(C(F)(F)F)nc3cccnc32)CC1       inactive
2    COc1ccc(Cl)cc1NC(=O)CCC(=O)c1ccc(C)cc1       inactive
3  Cc1nccn1CCCNC(=O)CC1C(=O)NCCN1Cc1ccc(Cl)c(F)c1 (stereo unspecified)       inactive
4  COc1ccc(-c2ccc(CCC(=O)O)n2-c2ccc(O)cc2)cc1         active

Ask: Could you check what this test reported for C=Cn1c(C(=O)O)ccc1-c1ccc(OC)cc1 ?
Reply: inactive

====

targetSystem: Schistosoma mansoni thioredoxin glutathione reductase (TGR)
protocolDescription: qHTS Assay for the Inhibitors of Schistosoma Mansoni Peroxiredoxins; further: nearly all actives have a fitted effect of over 60% in size
setupConditions: purified TGR, DTNB reduction, TNB absorbance 405 nm; series mostly up to 114 µM
Among all 360,000 compounds or so, about 11,000 (3.1%) were called active. About 4% were inconclusive and are not listed. Calls follow the shape of the dose curve; as a rule, active = well fitted inhibition curve with a large enough effect; inconclusive = small, poorly fitted or top-dose-only effect; inactive = no such curve, though single readings can be large or run the other way. The sample as a whole holds a higher share of actives than the screen did.
Select the matching outcome among 1 (active), 0 (inactive)

                                   molecule  discretelabel
0        CN(Cc1cccs1)C(=O)Cc1c[nH]c2ccccc12              0
1                O=C(NNC(=O)C1CCC1)c1ccccc1              0
2  CC(C)(C)OC(=O)N1CCC(c2c(C(=O)NCCc3ccsc3)cnn2-c2ccc(F)cc2F)CC1              0

Continue with the molecule presented below.
Ask: Hey, what did the test say about CCn1c(SCC(=O)Nc2nccs2)nnc1-c1ccco1 ?
Reply: 0
